# SUBJECT OF TEST: hNLRP3 (Homo sapiens, UniProt Q96P20)
# Construct: THP-1 cells were purchased from the American Type Culture Collection
# Sequence (Q96P20 whole entry): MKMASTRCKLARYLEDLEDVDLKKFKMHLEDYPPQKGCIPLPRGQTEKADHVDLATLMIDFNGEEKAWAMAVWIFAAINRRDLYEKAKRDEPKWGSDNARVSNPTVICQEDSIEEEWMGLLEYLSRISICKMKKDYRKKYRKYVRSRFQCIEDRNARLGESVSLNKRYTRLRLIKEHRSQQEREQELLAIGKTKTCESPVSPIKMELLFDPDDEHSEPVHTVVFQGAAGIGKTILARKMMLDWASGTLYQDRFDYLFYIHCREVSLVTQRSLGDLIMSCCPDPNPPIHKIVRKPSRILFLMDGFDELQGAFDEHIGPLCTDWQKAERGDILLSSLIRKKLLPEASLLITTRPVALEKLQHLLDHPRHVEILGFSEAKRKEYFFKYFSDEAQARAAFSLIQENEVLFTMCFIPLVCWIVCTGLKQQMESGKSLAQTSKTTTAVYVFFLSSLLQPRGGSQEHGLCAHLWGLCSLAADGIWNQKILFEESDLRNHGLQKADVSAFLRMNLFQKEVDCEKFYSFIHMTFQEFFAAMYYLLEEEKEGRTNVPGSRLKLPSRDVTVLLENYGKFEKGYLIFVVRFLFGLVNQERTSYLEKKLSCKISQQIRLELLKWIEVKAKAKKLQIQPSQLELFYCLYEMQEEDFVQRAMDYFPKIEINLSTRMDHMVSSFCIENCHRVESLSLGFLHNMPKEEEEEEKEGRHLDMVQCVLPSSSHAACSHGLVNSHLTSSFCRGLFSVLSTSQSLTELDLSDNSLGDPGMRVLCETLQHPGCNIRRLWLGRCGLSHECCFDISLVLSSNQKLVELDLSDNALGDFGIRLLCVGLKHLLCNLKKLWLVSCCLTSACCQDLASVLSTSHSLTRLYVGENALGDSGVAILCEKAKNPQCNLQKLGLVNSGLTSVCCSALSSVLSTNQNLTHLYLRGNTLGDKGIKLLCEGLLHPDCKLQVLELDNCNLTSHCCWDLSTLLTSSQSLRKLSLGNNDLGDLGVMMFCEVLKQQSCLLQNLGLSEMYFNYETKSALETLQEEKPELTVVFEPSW
# PROTOCOL: Measurement of IL-1β production in PMA-differentiated THP-1 cells (hNLRP3 agonist; ELISA, alternative and hTRF procedures)
pEC50: −log10 of the molar value.
MEASURE: pEC50

Worked cases, pEC50 given:
CCN(Cc1nc2c(N)nc3cc(-n4nccn4)ccc3c2[nH]1)C(C)=O: 5.46
CCC(=O)N(CC)Cc1nc2c(N)nc3cc(-n4cccn4)ccc3c2n1CCO: 5.43
Nc1nc2cc(-c3ccc(F)nc3)ccc2c2[nH]c(CN3CCCC3=O)nc12: 5.80
CCN(Cc1nc2c(N)nc3cc(-n4nccn4)ccc3c2[nH]1)C(=O)OC(C)(C)C: 5.34
CC(c1nc2c(N)nc3cc(-c4cccnc4)ccc3c2[nH]1)N1CCCC1=O (centres unmarked): 5.17

I. Nc1nc2cc(C3CCCCC3)ccc2c2[nH]c(CN3CCCC3=O)nc12
II. Nc1nc2cc(-c3cc[nH]n3)ccc2c2[nH]c(CN3CCCCC3=O)nc12
## Input Two entries are listed, I and II . Which one carries the higher pEC50? Please indicate the selected item by its label.
## Output I
(I: 6.03, II: 5.65)
